target: T1, hErbB3.hFc (soluble dimeric human ErbB3 extracellular domain fused to human Fc) (human); assay: blocking ELISA: antibody + 50 pM ErbB3-hFc on neuregulin1b-coated plate
T1 construct: called dimeric
T1 sequence (chain, as listed by the source limits assumed): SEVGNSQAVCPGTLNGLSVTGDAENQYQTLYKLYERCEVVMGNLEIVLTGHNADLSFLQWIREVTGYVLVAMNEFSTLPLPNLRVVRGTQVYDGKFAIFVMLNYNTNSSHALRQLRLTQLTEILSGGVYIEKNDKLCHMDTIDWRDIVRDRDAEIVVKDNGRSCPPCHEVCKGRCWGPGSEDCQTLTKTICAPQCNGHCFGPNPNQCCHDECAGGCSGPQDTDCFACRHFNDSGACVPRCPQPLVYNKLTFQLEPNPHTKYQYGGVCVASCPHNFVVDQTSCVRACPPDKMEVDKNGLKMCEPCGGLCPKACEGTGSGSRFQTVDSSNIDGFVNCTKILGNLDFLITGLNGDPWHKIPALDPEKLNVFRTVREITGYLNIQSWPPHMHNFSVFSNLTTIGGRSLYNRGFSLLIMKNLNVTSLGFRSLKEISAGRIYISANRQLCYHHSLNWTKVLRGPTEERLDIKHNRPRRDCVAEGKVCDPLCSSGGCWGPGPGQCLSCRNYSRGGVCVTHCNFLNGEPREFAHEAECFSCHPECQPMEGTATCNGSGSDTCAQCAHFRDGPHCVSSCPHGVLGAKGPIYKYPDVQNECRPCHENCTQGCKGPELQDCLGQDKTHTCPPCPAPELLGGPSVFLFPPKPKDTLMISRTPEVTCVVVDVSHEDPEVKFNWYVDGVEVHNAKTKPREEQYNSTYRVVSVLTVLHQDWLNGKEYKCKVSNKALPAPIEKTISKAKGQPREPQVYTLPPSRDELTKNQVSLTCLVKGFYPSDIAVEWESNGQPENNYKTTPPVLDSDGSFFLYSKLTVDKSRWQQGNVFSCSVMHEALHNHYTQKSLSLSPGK
Overview of reported IC50 across a group of binders:
metric.name: IC50

>>> measured("H2M1934N (antibody, V domains shown, Hybridoma chimeric antibody: human variable domains, mouse IgG2 Fc (H2M prefix)) VH: EVQLVQSGGGLVKPGGSLRLSCAASGFTFSNFNMNWVRQAPGKGLEWVSFISSLSTYTYYADSVKGRFTISRDNAKNSLYLQMNSLRAEDTAVYYCARDDGDHDWFDPWGQGTLVTVSS VL: EIVLTQSPDTLSLSPGERATLSCRASQSVSSNYLAWYQQKPGQAPRLLIYSASNRATGIPDRFSGSGSGTDFTLTISRLEPEDFAVYYCQQYDSSYTFGQGTKLEIK")
"0.0261 nM"
>>> measured("H2M1930N (antibody, V domains shown, Hybridoma chimeric antibody: human variable domains, mouse IgG2 Fc (H2M prefix)) VH: EVQLVESGGGLVKPGGSLRLSCVASGFTFSSYNMNWVRQAPGKGLEWVSFISGSSNYIHYADSVKGRFTISRDNAKNALYLQMNSLRAEDTAVYYCARDDGDYDWFDPWGQGTLVTVSS VL: EIVLTQSPGTLSLSPGERATLSCRASQSVSSSYLAWYQQKPGQAPRLLIYGTSSRATGIPDRFSGSGSGTDFTLTISRLEPEDFAVYYCQQYDNSYTFGQGTKLEIK")
"0.0222 nM"

These entries and their values trace back to patent US20140072563A1.
